pKi: −log10 of the molar value.
pKi for Coagulation factor X (Homo sapiens, UniProt P00742) - collated from the literature.
measure_name: pKi

[
  {
    "compound": "CCOC(=O)c1cccc(Oc2nc(Oc3cccc(C(=N)N)c3)c(F)c(C)c2F)c1",
    "tested_system": "Coagulation factor X (Homo sapiens, UniProt P00742)",
    "measure_name": "pKi",
    "value_prefix": "=",
    "numeric_result": 5.28
  },
  {
    "compound": "O=C(Nc1cccc(OCc2ccc(-c3cccc(F)c3)cc2)c1)C1CCNCC1",
    "tested_system": "Coagulation factor X (Homo sapiens, UniProt P00742)",
    "measure_name": "pKi",
    "value_prefix": "=",
    "numeric_result": 6.75
  },
  {
    "compound": "O=C(Nc1ccc(Cl)cc1)c1cc(Cl)ccc1NC(=O)c1scc(CNCCCn2ccnc2)c1Cl",
    "tested_system": "Coagulation factor X (Homo sapiens, UniProt P00742)",
    "measure_name": "pKi",
    "value_prefix": "=",
    "numeric_result": 8.34
  },
  {
    "compound": "CN1C(=O)C(OCc2ccc(C(=N)N)cc2)Oc2cc(C(=O)NCCC(=O)O)ccc21 (centres undefined)",
    "tested_system": "Coagulation factor X (Homo sapiens, UniProt P00742)",
    "measure_name": "pKi",
    "value_prefix": "=",
    "numeric_result": 3.95
  },
  {
    "compound": "CC(C)NC(=O)[C@H](Cc1cccc(C(=N)N)c1)NS(=O)(=O)c1ccc2ccccc2c1",
    "tested_system": "Coagulation factor X (Homo sapiens, UniProt P00742)",
    "measure_name": "pKi",
    "value_prefix": "=",
    "numeric_result": 3.44
  },
  {
    "compound": "CCc1nc2c(N)c(OC3CCN(C(C)=N)CC3)ccc2n1Cc1ccc2ccc(C(=N)N)cc2c1",
    "tested_system": "Coagulation factor X (Homo sapiens, UniProt P00742)",
    "measure_name": "pKi",
    "value_prefix": "=",
    "numeric_result": 8.10
  },
  {
    "compound": "N=C(N)c1cccc(Oc2ccc(NC(=O)NCC(N)=O)c(Oc3cccc(C(=N)N)c3)n2)c1",
    "tested_system": "Coagulation factor X (Homo sapiens, UniProt P00742)",
    "measure_name": "pKi",
    "value_prefix": "=",
    "numeric_result": 6.96
  },
  {
    "compound": "CC(C)N1CCC(C(=O)Nc2cccc(OCc3ccc(F)cc3)c2)CC1",
    "tested_system": "Coagulation factor X (Homo sapiens, UniProt P00742)",
    "measure_name": "pKi",
    "value_prefix": "<",
    "numeric_result": 3.60
  },
  {
    "compound": "COc1ccc(C(=N)N)cc1Oc1nc(Oc2cccc(C(=O)N(C)C)c2)c(F)c(C)c1F",
    "tested_system": "Coagulation factor X (Homo sapiens, UniProt P00742)",
    "measure_name": "pKi",
    "value_prefix": "=",
    "numeric_result": 6.13
  }
]
